study-system: human recombinant MMP-9 (Homo sapiens)
Construct: purchased AnaSpec, Inc. 72009
Sequence (P14780 94-707): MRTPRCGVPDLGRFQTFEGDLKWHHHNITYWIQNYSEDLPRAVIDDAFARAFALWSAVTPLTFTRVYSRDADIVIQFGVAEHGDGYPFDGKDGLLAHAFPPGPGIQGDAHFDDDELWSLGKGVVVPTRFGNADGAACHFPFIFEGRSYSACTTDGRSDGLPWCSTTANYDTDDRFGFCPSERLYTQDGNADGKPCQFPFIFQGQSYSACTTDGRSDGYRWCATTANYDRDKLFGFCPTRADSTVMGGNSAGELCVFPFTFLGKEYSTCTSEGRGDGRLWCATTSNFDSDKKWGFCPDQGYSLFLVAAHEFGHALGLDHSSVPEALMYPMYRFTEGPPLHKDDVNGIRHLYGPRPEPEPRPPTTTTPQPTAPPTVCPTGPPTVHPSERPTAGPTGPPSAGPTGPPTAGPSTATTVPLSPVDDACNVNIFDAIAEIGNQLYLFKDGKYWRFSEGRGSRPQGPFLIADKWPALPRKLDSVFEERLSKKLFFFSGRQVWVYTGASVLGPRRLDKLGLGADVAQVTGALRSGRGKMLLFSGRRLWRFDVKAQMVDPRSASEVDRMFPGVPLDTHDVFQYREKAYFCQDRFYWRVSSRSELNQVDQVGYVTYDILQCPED
run-description: Human MMP-9-based anti-MMP screening assay (Sensolyte Generic MMP colorimetric kit)
Type: biochemical
experimental-conditions: inhibitor 24 wt %, soluble human MMP-9
assay-metric: % MMP ACTIVITY INHIBITION (t = 30 minutes)

Worked cases, % MMP ACTIVITY INHIBITION (t = 30 minutes) given:
input: What value of % MMP ACTIVITY INHIBITION (t = 30 minutes) has been reported for the following molecule? C=CC[N+](C)(C)CC=C.[Cl-] [DDAC, Diallyldimethylammonium chloride]
output: 16%

input: What value of % MMP ACTIVITY INHIBITION (t = 30 minutes) has been reported for the following molecule? C=C(C)C(=O)NCCC[N+](C)(C)C.[Cl-] [MAPTAC]
output: 17%

input: What value of % MMP ACTIVITY INHIBITION (t = 30 minutes) has been reported for the following molecule? C=C(C)C(=O)OCC[N+](C)(C)C [MCMS]
output: 84%

input: What value of % MMP ACTIVITY INHIBITION (t = 30 minutes) has been reported for the following molecule? C=C(C)C(=O)OCC[N+](C)(C)C.[Cl-] [METMAC]
output: 71%

Further cases:
input: What value of % MMP ACTIVITY INHIBITION (t = 30 minutes) has been reported for the following molecule? C=CC(=O)OCC[N+](C)(C)C.[Cl-] [ATA]
output: 82%

###

// values below are reported COLLAGENASE INHIBITION (%)
System: Clostridium histolyticum collagenase
run-description: Bacterial collagenase-based anti-MMP screening assay (SDS-PAGE gel analysis of undegraded Type I collagen)
Format: biochemical
experimental-conditions: inhibitor 1 wt %
Please reply with the bare figure in % and do not write the unit itself.

Worked cases, COLLAGENASE INHIBITION (%) given:
input: Param readout= COLLAGENASE INHIBITION (%); system= Clostridium histolyticum collagenase; entry= C=C(C)C(=O)NCCC[N+](C)(C)C.[Cl-] [MAPTAC] ; returns value.
output: 53

input: Param readout= COLLAGENASE INHIBITION (%); system= Clostridium histolyticum collagenase; entry= C=CC[N+](C)(C)CC=C.[Cl-] [DDAC, Diallyldimethylammonium chloride] ; returns value.
output: 56

input: Param readout= COLLAGENASE INHIBITION (%); system= Clostridium histolyticum collagenase; entry= C=C(C)C(=O)OCC[N+](C)(C)C [MCMS] ; returns value.
output: 70

With those in mind, consider the next molecule.
input: Param readout= COLLAGENASE INHIBITION (%); system= Clostridium histolyticum collagenase; entry= C=CC(=O)OCC[N+](C)(C)C.[Cl-] [ATA] ; returns value.
output: 55

###

System: Clostridium histolyticum collagenase
run-description: Bacterial collagenase-based anti-MMP screening assay (SDS-PAGE gel analysis of undegraded Type I collagen)
Format: biochemical
experimental-conditions: inhibitor 0.5 wt %
assay-metric: COLLAGENASE INHIBITION (%)

Worked cases, COLLAGENASE INHIBITION (%) given:
input: What value of COLLAGENASE INHIBITION (%) has been reported for the following compound? C=C(C)C(=O)NCCC[N+](C)(C)C.[Cl-]
output: 39%

input: What value of COLLAGENASE INHIBITION (%) has been reported for the following compound? C=CC[N+](C)(C)CC=C.[Cl-] [DDAC, Diallyldimethylammonium chloride]
output: 50%

input: What value of COLLAGENASE INHIBITION (%) has been reported for the following compound? C=CC(=O)OCC[N+](C)(C)C.[Cl-]
output: 57%

With those in mind, consider the next compound.
input: What value of COLLAGENASE INHIBITION (%) has been reported for the following compound? C=C(C)C(=O)OCC[N+](C)(C)C
output: 73%
